biological target: MMP-2 (Homo sapiens); construct: made in house; provided by Dr. Gregory Goldberg, Washington University; experiment: biochemical; details: recombinant human MMP-2, MCA peptide substrate 4 μM, pH 7.5, room temperature; read-out: MMP-2 IC50
Measurement label: IC50

Here is how some molecules turned out for IC50.
O=C(NO)C1(S(=O)(=O)c2ccc(Oc3ccc(OC(F)(F)F)cc3)cc2)CCN(S(=O)(=O)C(F)(F)F)CC1 [Example 197] : < 0.0001 µM
CC1CC(C)CN(C(=O)C2CCN(c3ccc(S(=O)(=O)C4(C(=O)NO)CCN(C(=O)CN5CCCC5)CC4)cc3)CC2)C1 (stereo not drawn) [Example 298] : > 10 µM

For the next question, use this molecule.
Task: // returns reported IC50 for input CC1CC(C)CN(C(=O)C2CCN(c3ccc(S(=O)(=O)C4(C(=O)NO)CCN(C(=O)CNCCc5c[nH]cn5)CC4)cc3)CC2)C1 (stereo not drawn) [Example 281]
Result: > 10 µM

----------
Could you please report measured IC50 for the items listed next?
Molecular target: MMP-2 (Homo sapiens)
Construct: made in house; provided by Dr. Gregory Goldberg, Washington University
Sequence (P08253 110-660): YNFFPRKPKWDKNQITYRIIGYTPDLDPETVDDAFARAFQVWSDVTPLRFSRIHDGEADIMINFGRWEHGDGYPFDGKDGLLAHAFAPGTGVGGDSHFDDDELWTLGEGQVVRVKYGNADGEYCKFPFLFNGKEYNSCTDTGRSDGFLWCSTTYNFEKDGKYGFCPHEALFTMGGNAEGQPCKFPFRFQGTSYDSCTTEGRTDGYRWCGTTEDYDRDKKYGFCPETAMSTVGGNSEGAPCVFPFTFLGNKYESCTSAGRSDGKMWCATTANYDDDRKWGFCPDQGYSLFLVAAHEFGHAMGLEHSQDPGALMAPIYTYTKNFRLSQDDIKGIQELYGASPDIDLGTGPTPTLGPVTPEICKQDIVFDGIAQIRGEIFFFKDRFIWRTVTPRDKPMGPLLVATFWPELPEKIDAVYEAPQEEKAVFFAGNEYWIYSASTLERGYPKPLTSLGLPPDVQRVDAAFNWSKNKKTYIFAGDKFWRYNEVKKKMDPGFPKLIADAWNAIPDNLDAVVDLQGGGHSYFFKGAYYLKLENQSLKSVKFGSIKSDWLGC
Experiment: biochemical
Conditions: recombinant human MMP-2, MCA peptide substrate 4 μM, pH 7.5, room temperature; read-out: MMP-2 IC50
Where a name gives a salt, the structure may show the parent alone.

O=C(NO)C1(S(=O)(=O)c2ccc(Oc3ccc(OC(F)(F)F)cc3)cc2)CCN(CCCN2CCOCC2)CC1 [Example 264, Dihydrochloride] : < 0.0001 µM
CC1CC(C)CN(C(=O)C2CCN(c3ccc(S(=O)(=O)C4(C(=O)NO)CCOCC4)cc3)CC2)C1 (stereo not drawn) [Example 55] : > 10 µM

For the next question, use this molecule.
Task: // returns reported IC50 for input CC1CC(C)CN(C(=O)C2CCN(c3ccc(S(=O)(=O)C4(C(=O)NO)CCN(C(=O)CNCc5cccnc5)CC4)cc3)CC2)C1 (stereo not drawn)
Result: > 10 µM

----------
target: MMP-2 (Homo sapiens, UniProt P08253); construct: made in house; provided by Dr. Gregory Goldberg, Washington University; assay: biochemical; conditions: recombinant human MMP-2, MCA peptide substrate 4 μM, pH 7.5, room temperature; read-out: MMP-2 IC50
Measurement label: pIC50
Give bare numbers, as −log10 of the molar value.

N#Cc1cccc(S(=O)(=O)N2CCN(c3ccc(S(=O)(=O)C4(C(=O)NO)CCOCC4)cc3)CC2)c1 [Example 672] : 7.22
CCN(CC(=O)N1CCC(C(=O)NO)(S(=O)(=O)c2ccc(Oc3ccc(C(F)(F)F)cc3)cc2)CC1)Cc1ccncc1 [Example 329] : 9.40
O=C(NO)C1(S(=O)(=O)c2ccc(N3CCC(S(=O)(=O)c4ccccc4)CC3)cc2)CCN(C2CC2)CC1 [Example 409] : 6.56
O=C(NO)C1(S(=O)(=O)c2ccc(N3CCC(Nc4ccccc4O)CC3)cc2)CCOCC1 [Example 842] : 7.34
CC1CC(C)CN(C(=O)C2CCN(c3ccc(S(=O)(=O)C4(C(=O)NO)CCN(C(=O)CNCc5ccncc5)CC4)cc3)CC2)C1 (stereo not shown) [Example 285] : 5.05
CN(C)c1ccc(NC(=S)N2CCC(C(=O)NO)(S(=O)(=O)c3ccc(Oc4ccc(OC(F)(F)F)cc4)cc3)CC2)cc1 [Example 202] : 9.70
O=C(Nc1ccc(Oc2ccccc2)cc1)OC1CCN(c2ccc(S(=O)(=O)C3(C(=O)NO)CCOCC3)cc2)CC1 [Example 519] : 5.89

For the next question, use this molecule.
Task: // returns reported pIC50 for input O=C(NO)C1(S(=O)(=O)c2ccc(N3CCC(Oc4ccc(Br)cc4)CC3)cc2)CCOCC1 [Example 479]
Result: 7.22

----------
Biological target: MMP-1 (Homo sapiens, UniProt P03956)
Construct: made in house; host or cells: transfected HT-1080 cells (provided by Dr. Harold Welgus, Washington University)
Sequence (P03956 100-469): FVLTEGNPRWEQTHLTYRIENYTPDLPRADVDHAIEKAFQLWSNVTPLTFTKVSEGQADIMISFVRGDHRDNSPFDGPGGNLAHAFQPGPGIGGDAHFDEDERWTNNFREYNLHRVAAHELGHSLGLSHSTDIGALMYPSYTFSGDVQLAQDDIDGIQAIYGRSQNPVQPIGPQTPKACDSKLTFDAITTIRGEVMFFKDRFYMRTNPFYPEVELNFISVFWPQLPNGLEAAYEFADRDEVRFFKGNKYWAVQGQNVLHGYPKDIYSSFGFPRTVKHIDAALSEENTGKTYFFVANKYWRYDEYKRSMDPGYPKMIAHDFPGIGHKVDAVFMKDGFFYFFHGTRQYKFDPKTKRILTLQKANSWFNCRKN
Experiment: biochemical
Details: recombinant human MMP-1, MCA peptide substrate 4 μM, pH 7.5, room temperature; read-out: MMP-1 IC50
Structures can show the parent of a compound that is named as a salt.
Could you please report measured pIC50 for the items listed next?
Answers are plain numbers, as −log10 of the molar value.

Count: 3. Required value per item: pIC50.
1. O=C(NO)C1(S(=O)(=O)c2ccc(Oc3cccnc3)cc2)CCSCC1
2. O=C(NO)C1(S(=O)(=O)c2ccc(Oc3ccc(OC(F)(F)F)cc3)cc2)CCN(CCn2ccnc2)CC1 [Example 261, Dihydrochloride]
3. O=C(CCc1cnc[nH]1)N1CCC(C(=O)NO)(S(=O)(=O)c2ccc(Oc3ccc(OC(F)(F)F)cc3)cc2)CC1

Result:
6.32
5.43
5.22

----------
Could you please report measured log10 of IC50 for the items listed next?
target: MMP-13 (Homo sapiens, UniProt P45452); construct: made in house; host or cells: baculovirus / insect cells; test: biochemical; details: recombinant human MMP-13, MCA peptide substrate 4 μM, pH 7.5, room temperature; read-out: MMP-13 IC50
Where a name gives a salt, the structure may show the parent alone.
Hey, these are logged values: log10 of IC50, nM being the unit before logging.

Here is how some compounds turned out for log10 of IC50.
O=C(NO)C1(S(=O)(=O)c2ccc(N3CC=CCC3)cc2)CCOCC1 : 0.73
O=C(NO)C1(S(=O)(=O)c2ccc(N3CCCN(S(=O)(=O)c4ccc(OC(F)(F)F)cc4)CC3)cc2)CCOCC1 : 1.70
Cn1c(=O)n(C2CCN(c3ccc(S(=O)(=O)C4(C(=O)NO)CCOCC4)cc3)CC2)c2ccccc21 : 1.85
O=C(NO)C1(S(=O)(=O)c2ccc(N3CCCN(S(=O)(=O)c4ccccc4)CC3)cc2)CCOCC1 : 1.17

Count: 5. Required value per item: log10 of IC50.
1. O=C(NO)C1(S(=O)(=O)c2ccc(N3CCC(OCc4ccc(OC(F)(F)F)cc4)CC3)cc2)CCOCC1
2. O=C(NO)C1(S(=O)(=O)c2ccc(N3CCN(c4ccc(Cl)cc4)CC3)cc2)CCOCC1
3. O=C(Nc1ccccc1)C1CCN(c2ccc(S(=O)(=O)C3(C(=O)NO)CCN(C4CC4)CC3)cc2)CC1 [Example 243, Monohydrochloride]
4. CCCCCOc1ccc(COC2CCN(c3ccc(S(=O)(=O)C4(C(=O)NO)CCOCC4)cc3)CC2)cc1
5. O=C(c1ccco1)N1CCC(C(=O)NO)(S(=O)(=O)c2ccc(N3CCC(OCc4ccc(F)cc4)CC3)cc2)CC1

Result:
0.40
0.00
1.05
1.05
0.74

Count: 2. Required value per item: log10 of IC50.
1. COCCNCC(=O)N1CCC(C(=O)NO)(S(=O)(=O)c2ccc(N3CCC(C(=O)N4CC(C)CC(C)C4)CC3)cc2)CC1 (stereo not drawn)
2. O=C(NO)C1(S(=O)(=O)c2ccc(N3CCC(Oc4ccc(Cl)cc4F)CC3)cc2)CCOCC1

Result:
1. 1.69
2. 0.60
